Reported IRF Lucia reporter activity values follow for various compounds
Test system: RAW-Dual
ASSAY_OVERVIEW: IRF Lucia reporter activity, fold change vs agonist alone; cytotoxicity flag (confluency mask): cytotoxic (confluency <70% of control); higher = enhanced IRF activity
ASSAY_CONDITIONS: agonist: 3'3'-cGAMP (STING) 10 ug/mL
In all, about 2,900 compounds were measured (“IRF Lucia reporter activity, fold change vs agonist alone”: median about 0.9, highest 2% from about 2.8 on). This excerpt belongs to a sample that is enriched for the highest values.
// no unit, no text: just the number

Examples from the recorded data:
COMPOUND	MEASURE_NAME	MEASURED_RESULT
Cc1cc2c(F)c(Oc3ncnn4cc(OCC(C)OC(=O)C(C)N)c(C)c34)ccc2[nH]1 (stereo unspecified) (library stock concentration (final ~1000-fold dilution): 10 mM)	IRF Lucia reporter activity	0.967
Cc1ccc(CN(CC(O)COc2cccc3[nH]ccc23)C(C)(C)C)cc1 (stereo unspecified) (library stock concentration (final ~1000-fold dilution): 10 mM)	IRF Lucia reporter activity	0.837
Cc1sc2c(c1C)C(c1ccc(Cl)cc1)=N[C@@H](CC(=O)NCCCCCCCCNC(=O)COc1cccc3c1C(=O)N(C1CCC(=O)NC1=O)C3=O)c1nnc(C)n1-2 (stereo partly specified) (library stock concentration (final ~1000-fold dilution): 10 mM)	IRF Lucia reporter activity	0.189
O=[N+]([O-])c1ccc(Sc2cccc[n+]2[O-])c2nonc12 (library stock concentration (final ~1000-fold dilution): 10 mM)	IRF Lucia reporter activity	0.262
CCC1(O)C(=O)OCc2c1cc1n(c2=O)Cc2cc3c(CN(C)C)c(O)ccc3nc2-1.Cl (stereo unspecified) (library stock concentration (final ~1000-fold dilution): 10 mM)	IRF Lucia reporter activity	2.13
CC(C)(O)c1ccccc1CCC(SCC1(CC(=O)O)CC1)c1cccc(/C=C/c2ccc3ccc(Cl)cc3n2)c1 (stereo unspecified) (library stock concentration (final ~1000-fold dilution): 10 mM)	IRF Lucia reporter activity	0.492
COc1cc2c(NC3CCN(C(C)C)CC3)nc(N3CCC(F)(F)CC3)nc2cc1OCCCN1CCCC1 (library stock concentration (final ~1000-fold dilution): 10 mM)	IRF Lucia reporter activity	0.849
CN1CCN(CCCN2c3ccccc3Sc3ccc(Cl)cc32)CC1.O=C(O)/C=C\C(=O)O.O=C(O)/C=C\C(=O)O (library stock concentration (final ~1000-fold dilution): 10 mM)	IRF Lucia reporter activity	0.64
CCOC(=O)C1=C(COCCN)NC(C)=C(C(=O)OC)C1c1ccccc1Cl.O=S(=O)(O)c1ccccc1 (stereo unspecified) (library stock concentration (final ~1000-fold dilution): 10 mM)	IRF Lucia reporter activity	1.02
Cn1cncc1C(N)(c1ccc(Cl)cc1)c1ccc2c(c1)c(-c1cccc(Cl)c1)cc(=O)n2C (stereo unspecified) (library stock concentration (final ~1000-fold dilution): 10 mM)	IRF Lucia reporter activity	0.374

# lookup: Cc1cc(C)c(Nc2ccnc(Nc3ccc(C#N)cc3)n2)c(C)c1 (library stock concentration (final ~1000-fold dilution): 10 mM) on RAW-Dual, IRF Lucia reporter activity = 0.691

----------
Tested on: RAW-Dual
ASSAY_OVERVIEW: IRF Lucia reporter activity, fold change vs agonist alone; cytotoxicity flag (confluency mask): not cytotoxic; higher = enhanced IRF activity
ASSAY_CONDITIONS: agonist: LPS (TLR4) 0.1 ug/mL
The full ranking holds about 2,900 compounds; the median of “IRF Lucia reporter activity, fold change vs agonist alone” is about 0.9, and the highest 2% start at about 2.8. Only a selection was taken, and the highest values are over-represented in it overall.
MEASURE_NAME: IRF Lucia reporter activity
Number only, please.

Examples from the recorded data:
MOLECULE	IRF Lucia reporter activity
CC(C)CC(NC(=O)CNC(=O)c1cc(Cl)ccc1Cl)B(O)O (stereo not given) (library stock concentration (final ~1000-fold dilution): 10 mM)	1.16
Cn1c(=O)cc(N2CCCC(N)C2)n(Cc2cc(F)ccc2C#N)c1=O.O=C(O)CCC(=O)O (stereo not given) (library stock concentration (final ~1000-fold dilution): 10 mM)	1.26

According to the records, this molecule O=C(O)c1cc(I)ccc1NC(=O)C(Cc1ccccc1)NCc1ccccc1 (stereo not given) (library stock concentration (final ~1000-fold dilution): 10 mM) displays IRF Lucia reporter activity of 1.41

Record CC(C)c1nc(CN(C)C(=O)NC(C(=O)NC(Cc2ccccc2)CC(O)C(Cc2ccccc2)NC(=O)OCc2cncs2)C(C)C)cs1 (stereo not given) (library stock concentration (final ~1000-fold dilution): 10 mM) . Reported IRF Lucia reporter activity: 1.34

Entry CC(C)N(CCC(c1ccccc1)c1cc(CO)ccc1O)C(C)C (stereo not given) (library stock concentration (final ~1000-fold dilution): 10 mM) — recorded IRF Lucia reporter activity = 0.982
